biological target: T1, 人PD-L1-His重组蛋白 (human, UniProt Q9NZQ7 19-238); assay: BLI (Fortebio Octet QKe), antibody captured on AHC probe, human PD-L1-His 100 nM, 1:1 Langmuir fit
T1 construct: range 19-238; also called 人PD-L1胞外区结构域重组蛋白; 重组人PD-L1; not shown: His tag
T1 sequence (Q9NZQ7 19-238 limits assumed): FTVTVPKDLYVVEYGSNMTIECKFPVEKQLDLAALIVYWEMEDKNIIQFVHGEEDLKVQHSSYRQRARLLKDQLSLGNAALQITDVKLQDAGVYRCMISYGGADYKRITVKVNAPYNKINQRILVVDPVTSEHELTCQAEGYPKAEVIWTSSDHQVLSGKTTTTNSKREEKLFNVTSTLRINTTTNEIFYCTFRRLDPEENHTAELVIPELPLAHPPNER
Hi! Just check whether Kd is below 5 nM. Below gives Met, equal or above gives Not met.

>>> discrete_label("182-3 (antibody, human IgG1, V domains shown, also called h182L1 + Ch182H) VH: EVQLQQSGAELVKPGASVKLSCTVSGFNIKDIYMHWLKQRPEQGLEWIGRIDPANGNTKYDPKFQDKATMIADTSSNTAYLQLSSLTSEDTAVYYCASGQLGPLGFDYWGQGTTLTVSS VL: DIQMTQSPSSLSASVGDRVTITCRASQDISNYLNWYQQKPGKAPKLLLYYTSRLHSGVPSRFSGSGSGTDYTLTISSLQPEDFATYYCQQGNTLPYTFGGGTKVEIKR")
"Met"

Next binder, please.
Please state whether Kd is below 5 nM for 182-7 (antibody, V domains shown) VH: EVQLVQSGAEVKKPGATVKISCKVSGFNIKDIYMHWVQQAPGKGLEWMGRIDPANGNTKYDPKFQDRVTITADTSTDTAYMELSSLRSEDTAVYYCATGQLGPLGFDYWGQGTTVTVSS VL: DIQMTQSPSSLSASVGDRVTITCRASQDISNYLNWYQQKPGKAPKLLLYYTSRLHSGVPSRFSGSGSGTDYTLTISSLQPEDFATYFCQQGNTLPYTFGGGTKVEIKR Not met
